Measured target: ErbB4 on neonatal rat cardiomyocytes (rat) (UniProt Q62956)
Sequence (Q62956 26-1308): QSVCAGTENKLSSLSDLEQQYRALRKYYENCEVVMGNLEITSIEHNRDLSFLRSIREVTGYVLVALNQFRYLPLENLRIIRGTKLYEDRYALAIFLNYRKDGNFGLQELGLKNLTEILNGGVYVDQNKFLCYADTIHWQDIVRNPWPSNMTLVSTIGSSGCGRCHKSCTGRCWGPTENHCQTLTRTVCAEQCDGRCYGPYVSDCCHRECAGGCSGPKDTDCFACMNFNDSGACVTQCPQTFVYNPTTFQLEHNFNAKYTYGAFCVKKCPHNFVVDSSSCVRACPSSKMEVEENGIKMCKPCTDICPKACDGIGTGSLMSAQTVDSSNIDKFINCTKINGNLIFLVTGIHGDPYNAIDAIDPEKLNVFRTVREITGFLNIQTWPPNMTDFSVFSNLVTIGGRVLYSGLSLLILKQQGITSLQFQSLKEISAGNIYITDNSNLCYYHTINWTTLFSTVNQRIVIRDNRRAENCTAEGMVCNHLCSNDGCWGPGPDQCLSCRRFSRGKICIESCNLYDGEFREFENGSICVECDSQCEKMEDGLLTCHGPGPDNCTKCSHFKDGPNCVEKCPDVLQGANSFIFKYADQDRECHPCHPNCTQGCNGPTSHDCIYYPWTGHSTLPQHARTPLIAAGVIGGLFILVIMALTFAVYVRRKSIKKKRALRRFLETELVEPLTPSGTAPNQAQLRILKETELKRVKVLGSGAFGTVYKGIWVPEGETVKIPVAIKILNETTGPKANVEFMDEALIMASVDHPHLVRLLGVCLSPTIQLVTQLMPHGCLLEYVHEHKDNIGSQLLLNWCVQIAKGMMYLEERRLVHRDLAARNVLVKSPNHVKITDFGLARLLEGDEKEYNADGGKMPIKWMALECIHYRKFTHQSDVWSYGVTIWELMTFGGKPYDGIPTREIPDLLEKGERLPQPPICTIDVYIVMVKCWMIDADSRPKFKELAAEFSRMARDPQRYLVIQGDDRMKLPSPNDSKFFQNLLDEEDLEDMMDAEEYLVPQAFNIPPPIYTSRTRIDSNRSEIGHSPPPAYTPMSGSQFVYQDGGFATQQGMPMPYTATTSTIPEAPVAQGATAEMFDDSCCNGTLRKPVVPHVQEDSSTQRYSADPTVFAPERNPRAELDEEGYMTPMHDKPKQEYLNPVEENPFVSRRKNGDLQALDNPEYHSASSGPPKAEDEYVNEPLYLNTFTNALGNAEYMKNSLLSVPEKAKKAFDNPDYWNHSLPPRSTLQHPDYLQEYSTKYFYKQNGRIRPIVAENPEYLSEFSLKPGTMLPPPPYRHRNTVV
Assay: cell-based or functional assay
Endpoint: Selectivity SC/CM
Response field accepts a number only; no unit should be typed.

// Selectivity SC/CM lookup, key: huNRG1(S177-Q237)(2F2)::GG::huFcSEFL2 (Pb) (Fc fusion) SHLVKCAESEKTFCVNGGECYMIEHPSNPSRFLCKCPNEFTGDRCQNVFMASFYKAEELYQGGDKTHTCPPCPAPELLGGPSVFLFPPKPKDTLMISRTPEVTCVVVDVSHEDPEVKFNWYVDGVEVHNAKTKPCEEQYGSTYRCVSVLTVLHQDWLNGKEYKCKVSNKALPAPIEKTISKAKGQPREPQVYTLPPSREEMTKNQVSLTCLVKGFYPSDIAVEWESNGQPENNYKTTPPVLDSDGSFFLYSKLTVDKSRWQQGNVFSCSVMHEALHNHYTQKSLSLSPGK
826

Values compiled from patent US20220402985A1.
